# Lookup of reported pIC50 keyed by entry
Experimental System: UniProt:O14684
Sequence (O14684 1-152): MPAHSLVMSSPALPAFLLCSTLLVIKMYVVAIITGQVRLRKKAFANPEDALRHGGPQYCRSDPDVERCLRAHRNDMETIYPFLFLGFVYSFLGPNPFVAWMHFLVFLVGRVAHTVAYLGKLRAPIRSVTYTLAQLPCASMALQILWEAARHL
Assay Summary: A549 cell-based assay (PGE2 formation, IL-1β stimulated, 50% human serum)
Design: host or cells: A549 cells
Condition Details: A549 cells, IL-1β 5 ng/ml, 20-24 h, Table B, read-out: mPGES-1 inhibitory effect, IC50, cell assay
// field semantics: pIC50 = negative decimal log of concentration (mol/L)

Solved cases below.
- Cn1c(Nc2c(Cl)ccc(CNC(=O)C(C)(C)C)c2Cl)nc2cc(C(=O)N[C@H]3CC[C@H](C(F)(F)F)CC3)c(N3CC[C@@H](F)C3)nc21: 8.70
- CC(C)(C)C(=O)NCc1ccc(Cl)c(Nc2nc3cc(C(=O)N[C@H]4CC[C@H](C(F)(F)F)CC4)c(N4CCC(C(F)(F)F)CC4)nc3n2C2CC2)c1Cl: 8.15

Look up pIC50 for this molecule: Cn1c(Nc2c(Cl)ccc(CNC(=O)C(C)(C)C)c2Cl)nc2cc(C(=O)Nc3ccc(F)c(Cl)c3)c(N3CCC(C(F)(F)F)CC3)nc21
8.70

Look up pIC50 for this molecule: Cn1c(Nc2c(Cl)ccc(CNC(=O)C(C)(C)C)c2Cl)nc2cc(C(=O)NC(c3ccccn3)C(F)(F)F)c(N3CCC(C(F)(F)F)CC3)nc21 (stereo not drawn)
8.40

Look up pIC50 for this molecule: Cn1c(Nc2c(Cl)ccc(CNC(=O)C(C)(C)C)c2Cl)nc2cc(C(=O)NCC3CC3)c(N3CCC(C(F)(F)F)CC3)nc21
8.10

Look up pIC50 for this molecule: CC(C)(C)C(=O)NCc1ccc(Cl)c(Nc2nc3cc(C(=O)N[C@H]4CC[C@H](C(F)(F)F)CC4)c(N4CC[C@H](F)C4)nc3[nH]2)c1Cl
7.96

====

# Lookup of reported melting point keyed by entry

Solved cases below.
- CC(C)(C)C(=O)NCc1ccc(Cl)c(Nc2nc3cc(C(=O)N[C@H]4CC[C@H](C(F)(F)F)CC4)c(N4CCC(C(F)(F)F)CC4)nc3n2CC(F)F)c1Cl: 172 to 174 °C
- CC(C)(C)C(=O)NCc1ccc(Cl)c(Nc2nc3cc(C(=O)N[C@H]4CC[C@H](C(F)(F)F)CC4)c(N4CCC(C(F)(F)F)CC4)nc3n2C2CC2)c1Cl: 198 to 200 °C
- CC(C)(C)C(=O)NCc1ccc(Cl)c(Nc2nc3cc(C(=O)N[C@H]4CC[C@H](C(F)(F)F)CC4)c(N4CCC(C(F)(F)F)CC4)nc3n2CC(N)=O)c1Cl: 189 to 191 °C

Look up melting point for this molecule: Cn1c(Nc2c(Cl)ccc(CNC(=O)C(C)(C)C)c2Cl)nc2cc(C(=O)N[C@H]3CC[C@H](C(F)(F)F)CC3)c(N3CCC(C(F)(F)F)CC3)nc21
185 to 186 °C

====

Experimental System: UniProt:O14684
Sequence (O14684 1-152): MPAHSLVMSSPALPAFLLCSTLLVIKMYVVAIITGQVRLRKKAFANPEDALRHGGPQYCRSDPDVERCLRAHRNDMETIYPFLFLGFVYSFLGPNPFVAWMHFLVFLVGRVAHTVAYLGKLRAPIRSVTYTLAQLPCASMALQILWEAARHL
Assay Summary: mPGES-1 enzyme assay (HTRF detection of PGE2)
Type: biochemical
Parameters: made in house; host or cells: Rosetta E. coli (membrane/microsome fraction)
Condition Details: recombinant human mPGES-1 microsomes, PGH2 2 μM, Table A; read-out: mPGES-1 inhibitory effect, IC50, enzyme assay
Kindly apply the following: Yes if IC50 is less than 2 nM, No in every other case.

Below, 2 molecules whose answers are already recorded.
• Cn1c(Nc2c(Cl)ccc(CNC(=O)C(C)(C)C)c2Cl)nc2cc(C(=O)NCC3CC3)c(N3CCC(C(F)(F)F)CC3)nc21 = Yes
• CC(C)(C)C(=O)NCc1ccc(Cl)c(Nc2nc3cc(C(=O)N[C@H]4CC[C@H](C(F)(F)F)CC4)c(N4CCC(C(F)(F)F)CC4)nc3n2CC(N)=O)c1Cl = Yes

For this molecule, is IC50 lower than 2 nM? Cn1c(Nc2c(Cl)ccc(CNC(=O)C(C)(C)C)c2Cl)nc2cc(C(=O)NCC(F)(F)F)c(N3CCC(C(F)(F)F)CC3)nc21
No

For this molecule, is IC50 lower than 2 nM? Cn1c(Nc2c(Cl)ccc(CNC(=O)C(C)(C)C)c2Cl)nc2cc(C(=O)N[C@H]3CC[C@H](C(F)(F)F)CC3)c(N3CCC(F)CC3)nc21
No

For this molecule, is IC50 lower than 2 nM? COCCN(C)c1nc2c(cc1C(=O)N[C@H]1CC[C@H](C(F)(F)F)CC1)nc(Nc1cc(CNC(=O)C3(C(F)(F)F)CC3)ccc1Cl)n2C
No

====

Experimental System: mPGES-1 (Homo sapiens, UniProt O14684)
Sequence (O14684 1-152): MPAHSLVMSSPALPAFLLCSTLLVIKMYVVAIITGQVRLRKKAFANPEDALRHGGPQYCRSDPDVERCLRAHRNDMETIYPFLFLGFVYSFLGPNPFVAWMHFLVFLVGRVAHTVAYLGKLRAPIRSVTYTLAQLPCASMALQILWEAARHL
Assay Summary: mPGES-1 enzyme assay (HTRF detection of PGE2)
Type: biochemical
Set-up: made in house; host or cells: Rosetta E. coli (membrane/microsome fraction)
Condition Details: recombinant human mPGES-1 microsomes, PGH2 2 μM, Table A; read-out: mPGES-1 inhibitory effect, IC50, enzyme assay
# Lookup of reported IC50 keyed by entry
Your answer is read as nM, so omit the unit and give the number.

Look up IC50 for this molecule: CN(CC(F)F)c1nc2[nH]c(Nc3c(Cl)ccc(CNC(=O)C(C)(C)C)c3Cl)nc2cc1C(=O)NCC(F)F
10

Look up IC50 for this molecule: CN(C)C(=O)Cn1c(Nc2c(Cl)ccc(CNC(=O)C(C)(C)C)c2Cl)nc2cc(C(=O)N[C@H]3CC[C@H](C(F)(F)F)CC3)c(N3CCC(C(F)(F)F)CC3)nc21
10

Look up IC50 for this molecule: CN(CC(F)F)c1nc2c(cc1C(=O)N[C@H]1CC[C@H](C(F)(F)F)CC1)nc(Nc1cc(CNC(=O)C3(C(F)(F)F)CC3)ccc1Cl)n2C
9

====

Experimental System: mPGES-1 (Homo sapiens, UniProt O14684)
Assay Summary: A549 cell-based assay (PGE2 formation, IL-1β stimulated, 50% human serum)
Design: host or cells: A549 cells
Condition Details: A549 cells, IL-1β 5 ng/ml, 20-24 h, Table B, read-out: mPGES-1 inhibitory effect, IC50, cell assay
# Lookup of reported IC50 keyed by entry
Your answer is read as nM, so omit the unit and give the number.

• CC(C)(C)C(=O)NCc1cc(F)c(Cl)c(Nc2nc3cc(C(=O)N[C@H]4CC[C@H](C(F)(F)F)CC4)c(N4CCC(F)CC4)nc3[nH]2)c1Cl = 10
• Cn1c(Nc2c(Cl)ccc(CNC(=O)C(C)(C)C)c2Cl)nc2cc(C(=O)NCCCC(F)(F)F)c(N3CCC(C(F)(F)F)CC3)nc21 = 8
• CN(Cc1nccn1C)c1nc2c(cc1C(=O)N[C@H]1CC[C@H](C(F)(F)F)CC1)nc(Nc1c(Cl)ccc(CNC(=O)C(C)(C)C)c1Cl)n2C = 3
• CN(CC(F)F)c1nc2[nH]c(Nc3c(Cl)ccc(CNC(=O)C(C)(C)C)c3Cl)nc2cc1C(=O)N[C@H]1CC[C@H](C(F)(F)F)CC1 = 3

Here is another molecule to look at.
Look up IC50 with mPGES-1 (Homo sapiens, UniProt O14684) for this molecule: Cn1c(Nc2c(Cl)ccc(CNC(=O)C(C)(C)C)c2Cl)nc2cc(C(=O)NCC(F)(F)C(F)(F)F)c(N3CCC(C(F)(F)F)CC3)nc21
10

====

Experimental System: UniProtKB O14684
Assay Summary: mPGES-1 enzyme assay (HTRF detection of PGE2)
Type: biochemical
Design: made in house; host or cells: Rosetta E. coli (membrane/microsome fraction)
Condition Details: recombinant human mPGES-1 microsomes, PGH2 2 μM, Table A; read-out: mPGES-1 inhibitory effect, IC50, enzyme assay
Quantity: IC50
Note: state the figure and append the unit.

Solved cases below.
- Cn1c(Nc2c(Cl)ccc(CNC(=O)C(C)(C)C)c2Cl)nc2cc(C(=O)Nc3cccc(OC(F)(F)F)c3)c(N3CCC(C(F)(F)F)CC3)nc21 [Example 40]: 3 nM
- Cn1c(Nc2c(Cl)ccc(CNC(=O)C(C)(C)C)c2Cl)nc2cc(C(=O)NCc3ncccc3C(F)(F)F)c(N3CCC(C(F)(F)F)CC3)nc21 [Example 43]: 5 nM
- Cn1c(Nc2c(Cl)ccc(CNC(=O)C(C)(C)C)c2Cl)nc2cc(C(=O)Nc3ccc(OC(F)(F)F)cc3)c(N3CCC(C(F)(F)F)CC3)nc21 [Example 24]: 1 nM
- Cn1c(Nc2c(Cl)ccc(CNC(=O)C(C)(C)C)c2Cl)nc2cc(C(=O)Nc3ccc(F)c(Cl)c3)c(N3CCC(C(F)(F)F)CC3)nc21 [Example 41]: 1 nM
- CN(CC(F)F)c1nc2[nH]c(Nc3c(Cl)ccc(CNC(=O)C(C)(C)C)c3Cl)nc2cc1C(=O)NC1CCC(F)(F)CC1 [Example 10]: 1 nM
- CN(c1nc2c(cc1C(=O)N[C@H]1CC[C@H](C(F)(F)F)CC1)nc(Nc1c(Cl)ccc(CNC(=O)C(C)(C)C)c1Cl)n2C)C1COC1 [Example 20]: 2 nM

Here is another compound to look at.
Look up IC50 with UniProtKB O14684 for this compound: CC(C)(C)C(=O)NCc1ccc(Cl)c(Nc2nc3cc(C(=O)N[C@H]4CC[C@H](C(F)(F)F)CC4)c(N4CC5CC5C4)nc3[nH]2)c1Cl (stereo partly shown) [Example 12]
2 nM
